Test system: Yap1 mRNA
Method Summary: Dose-dependent inhibition of human Yap1 in A-431 cells (Example 8, 10,000 cells per well, RTS4814)
Assay type: cell-based
Experimental Setup: 500.0 nM; A-431 cells, 10,000 cells per well, free uptake, approximately 48 hours, RTS4814
Strand notation (5' to 3'): a small letter for the sugar, then the base; units joined by * are phosphorothioate-linked, units joined directly phosphodiester-linked; [ ] holds rarer units or linkages, { } end groups; capitals alone tell only the bases. k = constrained ethyl (cEt); [5mC] = 5-methylcytosine; d = 2'-deoxy (DNA)
If the reported Yap1 mRNA, % UTC equals or exceeds 5 % UTC, assign yes. If not, assign no.

These solved cases illustrate the format of a correct answer.
Substance: 1074675 (antisense kA*kA*kA*dT*dT*dA*dT*dA*dG*dG*d[5mC]*dA*d[5mC]*kT*k[5mC]*k[5mC]) [compound 1074675]
Class Assignment: yes

Substance: 1074766 (kA*kT*k[5mC]*d[5mC]*d[5mC]*dA*dA*dT*dG*d[5mC]*dT*dA*d[5mC]*k[5mC]*k[5mC]*kA; antisense) [compound 1074766]
Class Assignment: yes

Substance: 1076490 (k[5mC]*k[5mC]*kA*dA*dA*dA*dT*dA*dG*dG*dT*dG*dA*kG*kT*k[5mC]; antisense) [compound 1076490]
Class Assignment: no

Substance: 1074443 (kT*k[5mC]*kA*dG*dA*d[5mC]*d[5mC]*dA*dG*dT*dA*dA*dA*kT*k[5mC]*kA; antisense) [compound 1074443]
Class Assignment: yes

Alright, here's another substance for you.
### Prompt Threshold query (Yap1 mRNA, % UTC >= 5 % UTC) on 1074629 (DNA kG*kA*kG*dA*dT*dT*dT*dT*dA*dT*dG*d[5mC]*d[5mC]*kT*kG*kT; antisense) [compound 1074629]
### Response no
